These measurements were taken from PubChem BioAssay AID1159565.

# Test system: T. cruzi-infected H9C2 cardiomyocytes, high-content imaging
# Measurement Description: intracellular T. cruzi amastigote inhibition, imaging, H9C2 host cardiomyocytes, host toxicity (AID 1159565);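 note: infected cells incubated 72 h after plating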
# Condition Label: measured here: amastigotes per cell
Just a reminder that ties go to rule not met: only IC50 strictly below 800 nM counts as rule met.

COc1ccc2ncc(=O)n(CCN3CCC(NCc4ccc(-c5cccs5)cc4)CC3)c2n1 = rule met
COc1ccccc1C1CC(c2ccc(NS(C)(=O)=O)cc2)=NN1C(=O)c1cccs1 (stereo unspecified) = rule not met
N#Cc1cccc(CN2CCC(c3nc(-c4ccc(C(F)(F)F)nc4)no3)CC2)c1 = rule not met
Cn1nc([N+](=O)[O-])nc1Oc1ccc(C(=O)c2ccccc2)cc1 = rule met
CC(C)C[C@H](NC(=O)c1ccc(-c2ccccc2)o1)C(=O)NC1(C#N)CC1 = rule not met
COc1ccc(-c2cnc(NC(=O)c3ccc(F)cc3)n2C)cc1 = rule not met

Field: below-cutoff. Rule: recorded IC50 strictly less than 800 nM. Subject: CCCC(=O)N(Cc1ccccn1)c1nc2ccccc2s1
rule met

Field: below-cutoff. Rule: recorded IC50 strictly less than 800 nM. Subject: c1ccc2c(CCOc3nccnc3-c3ccncc3)c[nH]c2c1
rule met

Field: below-cutoff. Rule: recorded IC50 strictly less than 800 nM. Subject: N#Cc1ccc(C(=O)Nc2cccc(-c3cccc(CN4CCC(O)CC4)c3)c2)cc1
rule not met

* * *

# System: T. cruzi-infected H9C2 cardiomyocytes, high-content imaging
# Measurement Description: intracellular T. cruzi amastigote inhibition, imaging, H9C2 host cardiomyocytes, host toxicity (AID 1159565);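 note: infected cells incubated 72 h after plating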
# Condition Label: measured here: amastigotes per cell
pIC50: −log10 of the molar value.
Hi, to clarify the labels: fulfilled covers pIC50 from 6 upward, not fulfilled covers anything below 6.

Worked examples follow.
O=C(Nc1cccc(Cl)c1)Nc1ccc([N+](=O)[O-])cc1Cl = not fulfilled
CC1CCCN(S(=O)(=O)c2ccc(C(=O)Nc3nc(-c4ccccn4)cs3)cc2)C1 (stereo not drawn) = fulfilled
CC(c1ccc2c(c1)CCCC2)N(C)c1ncc2c(N)nc(N)nc2n1 (stereo not drawn) = fulfilled
O=C(Cn1cnc([N+](=O)[O-])n1)Nc1ccc(Cl)cc1C(=O)c1ccccc1 = fulfilled
Cc1ccccc1NS(=O)(=O)c1ccc2[nH]cc(C(=O)NC3CCCCC3)c(=O)c2c1 = not fulfilled
CC(Cn1ccnc1)NC(=O)COc1ccc(Cl)c(Cl)c1 (stereo not drawn) = fulfilled
CC(C)(C)C(=O)NCCc1csc(-c2ccc(F)cc2)n1 = not fulfilled
O=C1CSC(c2cccnc2)N1c1ccc(Cl)cc1Cl (stereo not drawn) = fulfilled
CS(=O)(=O)c1ccccc1C(=O)N(Cc1ccccc1)c1ccccc1 = not fulfilled
CCCc1nc2nc(N)nc(N)c2cc1CC = fulfilled

Entry N#Cc1nc(C=Cc2ccccc2)oc1NCc1cccnc1 : is its pIC50 no less than 6?
fulfilled

Entry Cc1ccc2ccc(C(Nc3ccccn3)c3cccnc3)c(O)c2n1 (stereo not drawn) : is its pIC50 no less than 6?
fulfilled

* * *

IC50 reference
# System: T. cruzi-infected H9C2 cardiomyocytes, high-content imaging
# Measurement Description: intracellular T. cruzi amastigote inhibition, imaging, H9C2 host cardiomyocytes, host toxicity (AID 1159565);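 note: infected cells incubated 72 h after plating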
# Condition Label: measured here: H9C2 host cell toxicity
Please respond with the number in µM and leave the unit unwritten.

CNc1nc(C)nc(N2CCc3cc(C(=O)NCc4ccc(-c5ccn[nH]5)cc4Cl)ccc32)n1 = 20
Cc1cc(Br)sc1CNCCCNc1cc(=O)c2ccccc2[nH]1 = 25
COc1ccc2nccc([C@H](O)CN3CC[C@H](NC(=O)c4ccc(Br)cc4)[C@@H](O)C3)c2n1 = 2
COc1ccnc2[nH]cc(-c3cc(C(=O)N[C@H](CO)c4ccccc4)co3)c12 = 0.32
CCN(CC)S(=O)(=O)c1ccc(Cn2nc(C(=O)Nc3ccncn3)c3ccccc32)cc1 = 25

What does the record list as IC50 for Cc1ccccc1NS(=O)(=O)c1ccc2[nH]cc(C(=O)NC3CCCC3)c(=O)c2c1 ?
20

What does the record list as IC50 for O=C(N[C@H](CO)c1ccccc1)c1ccc(-c2c[nH]c3nccc(C(F)(F)F)c23)s1 ?
13

What does the record list as IC50 for N#Cc1cccc(Cc2cc(Nc3cc(C4CC4)[nH]n3)nc(N3CC[C@H]3C(N)=O)n2)c1 ?
0.004
